Test system: Hs578T
assay_info: normalised response (% of control), CellTiter-Glo; higher = more viable cells (100 = DMSO, 0 = benzethonium chloride kill control)
condition: incubation time: 72 h
// normalised response lookup, one value per entry
Give the value in % but do not write % after it.

Below, each entry is followed by its recorded normalised response result.
molecule | target_system | normalised response / %
Cc1c(C(=O)Nc2ccc(N3C[C@@H](C)O[C@@H](C)C3)nc2)cccc1-c1ccc(OC(F)(F)F)cc1 [Erismodegib] (100 nM) | Hs578T | 101
Cn1nnc2c(C(N)=O)ncn2c1=O [Temozolomide] (100 nM) | Hs578T | 103
CN1CCN(c2nc(C3=C(c4c[nH]c5ccccc45)C(=O)NC3=O)c3ccccc3n2)CC1 [Sotrastaurin] (100 nM) | Hs578T | 97.5
C[C@@H](C(=O)O)c1ccc(-c2ccccc2)c(F)c1 [Tarenflurbil] (100 nM) | Hs578T | 102
Cn1cc(C[C@@H](N)C(=O)O)c2ccccc21 [1-methyl-D-tryptophan] (50 nM) | Hs578T | 95.4
CC(C)C(=O)Nc1ccc([N+](=O)[O-])c(C(F)(F)F)c1 [Flutamide] (100 nM) | Hs578T | 98

What does the data say about its normalised response? Entry: CC[C@H](CC#N)OC(=O)N[C@@H](C)c1cccc(NC(=O)Nc2ccc(-c3cnco3)c(OC)c2)c1 [AVN944] (100 nM)
111

Using the record for CC/C(=C(\c1ccccc1)c1ccc(OCCN(C)C)cc1)c1ccccc1 [Tamoxifen] (100 nM) , report its normalised response.
105

// normalised response lookup, key: CC(C)NC[C@@H](C(=O)N1CCN(c2ncnc3c2[C@H](C)C[C@H]3O)CC1)c1ccc(Cl)cc1 [GDC-0068] (100 nM)
102

Suppose we examine the molecule N[C@@H](Cc1ccc(N(CCCl)CCCl)cc1)C(=O)O [Melphalan] (125 nM) ; what normalised response value has been reported?
93.1

So what does the record say about normalised response for NC(=O)c1cccc2cn(-c3ccc([C@@H]4CCCNC4)cc3)nc12 [MK-4827] (100 nM) ?
95.1

State the recorded normalised response for this entry: O=C(c1cc(Cc2n[nH]c(=O)c3ccccc23)ccc1F)N1CCN(C(=O)C2CC2)CC1 [Olaparib] (100 nM)
97.7

Value source: the supplement of paper PMC4862054
